Reported viability, T/C values for a set of molecules
tested on: PDC KRAS tumor spheroids with HUVEC/MSC, viability; experiment: Anticancer human tumor 349418-098-R-PDC patient-derived lung adenocarcinoma cell line growth inhibition [KRAS2]; conditions: second compound 10 µM; first compound 1 µM; active compounds read low
Return type: number; implicit unit %.

Solved entries (count: 3):
- molecule: "O=C(c1cc(Cc2n[nH]c(=O)c3ccccc23)ccc1F)N1CCN(C(=O)C2CC2)CC1 + CNCc1ccccc1-c1csc(C(C)Nc2nc(C)nc3cc(OC)c(OC)cc23)c1"
  viability, T/C / %: 0.07
- molecule: "COc1cc(Nc2ncc3c(n2)-c2ccc(Cl)cc2C(c2c(F)cccc2OC)=NC3)ccc1C(=O)O + CC1OCC2(CCN(c3cnc(Sc4ccnc(N)c4Cl)c(N)n3)CC2)C1N"
  viability, T/C / %: 31.1
- molecule: "O=C(c1cc(Cc2n[nH]c(=O)c3ccccc23)ccc1F)N1CCN(C(=O)C2CC2)CC1 + COc1cc2nc(C)nc(NC(C)c3cc(N)cc(C(F)(F)F)c3)c2cc1OC1CCOC1"
  viability, T/C / %: 22.2

Returns the measured viability, T/C for the input molecule. Input: CC1(C)CCC(CN2CCN(c3ccc(C(=O)NS(=O)(=O)c4ccc(NCC5CCOCC5)c([N+](=O)[O-])c4)c(Oc4cnc5[nH]ccc5c4)c3)CC2)=C(c2ccc(Cl)cc2)C1 + C=CC(=O)N1CCN(c2nc(=O)n(-c3c(C)ccnc3C(C)C)c3nc(-c4c(O)cccc4F)c(F)cc23)C(C)C1
32.5

For CC1COCCN1c1cc(-c2ccnn2C)c2ccnc(-c3ccn[nH]3)c2n1 (stereo not given) + CC1OCC2(CCN(c3cnc(Sc4ccnc(N)c4Cl)c(N)n3)CC2)C1N , what is its reported viability, T/C?
4.95

* * *

system: PDC KRAS tumor spheroids with HUVEC/MSC, viability; experiment: Anticancer human tumor 349418-098-R-PDC cell line growth inhibition [KRAS2]; details: second compound 0.316 µM; first compound 1 µM; active compounds read low;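 also: spheroids exposed to compounds for seven days before readout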
The reader will find reported viability, T/C values listed item by item below.
# unit: % | format: bare number

Example cases with answers are listed next.
- compound: "CC(C)NCC(C(=O)N1CCN(c2ncnc3c2C(C)CC3O)CC1)c1ccc(Cl)cc1 (stereo not drawn) + CNCc1ccccc1-c1csc(C(C)Nc2nc(C)nc3cc(OC)c(OC)cc23)c1"
  measured: 19.7
- compound: "CCNC(=O)CC1N=C(c2ccc(Cl)cc2)c2cc(OC)ccc2-n2c(C)nnc21 (stereo not drawn) + COc1cc2nc(C)nc(NC(C)c3cc(N)cc(C(F)(F)F)c3)c2cc1OC1CCOC1"
  measured: 7.39

Next compound, viability, T/C to be filled in.
// viability, T/C lookup, key: CC(C)NCC(C(=O)N1CCN(c2ncnc3c2C(C)CC3O)CC1)c1ccc(Cl)cc1 (stereo not drawn) + C=CC(=O)N1CCN(c2nc(=O)n(-c3c(C)ccnc3C(C)C)c3nc(-c4c(O)cccc4F)c(F)cc23)C(C)C1
27

* * *

Tested on: PDC KRAS tumor spheroids with HUVEC/MSC, viability
Assay: Anticancer human tumor 349418-098-R-PDC cell line growth inhibition [KRAS2]; active means viability on the fitted dose curve at most 10% of control; inactive means the rest;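 also: spheroids exposed to compounds for seven days before readout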
Conditions: second compound 0.1 µM; first compound 1 µM
Description: Multicellular complex tumor spheroid response to RAS pathway inhibitors in combination with a targeted agents in patient-derived cell lines with oncogenic KRAS variants from multiple cancer types A high-throughput screen of multi-cell type tumor spheroids was designed to identify active combinations of targeted small molecules and KRAS pathway inhibitors. […] Compounds. […] If the clinical Cmax for an agent had not been determined, the highest concentration tested was 10 microM. […]
A correct response names exactly one class from active, inactive

Example results:
- compound: "O=C(c1cc(Cc2n[nH]c(=O)c3ccccc23)ccc1F)N1CCN(C(=O)C2CC2)CC1 + CC1OCC2(CCN(c3cnc(Sc4ccnc(N)c4Cl)c(N)n3)CC2)C1N"
  assigned.class: "inactive"
- compound: "COc1cc2nccc(Oc3ccc(NC(=O)C4(C(=O)Nc5ccc(F)cc5)CC4)cc3)c2cc1OC + C=CC(=O)N1CCN(c2nc(OCC3CCCN3C)nc3c2CCN(c2cccc4cccc(C)c24)C3)CC1CC#N"
  assigned.class: "inactive"

Hi team, can someone confirm the assay call for CC(C)NCC(C(=O)N1CCN(c2ncnc3c2C(C)CC3O)CC1)c1ccc(Cl)cc1 (stereo unspecified) + C=CC(=O)N1CCN(c2nc(OCC3CCCN3C)nc3c2CCN(c2cccc4cccc(C)c24)C3)CC1CC#N ?
inactive

For this compound, state the assay outcome: O=C(c1cc(Cc2n[nH]c(=O)c3ccccc23)ccc1F)N1CCN(C(=O)C2CC2)CC1 + C=CC(=O)N1CCN(c2nc(OCC3CCCN3C)nc3c2CCN(c2cccc4cccc(C)c24)C3)CC1CC#N
inactive

Status in this test for O=C(c1cc(Cc2n[nH]c(=O)c3ccccc23)ccc1F)N1CCN(C(=O)C2CC2)CC1 + COc1cc2nc(C)nc(NC(C)c3cc(N)cc(C(F)(F)F)c3)c2cc1OC1CCOC1 ?
inactive

Please let me know the test result on file for CCN1CCN(Cc2ccc(Nc3ncc(F)c(-c4cc(F)c5nc(C)n(C(C)C)c5c4)n3)nc2)CC1 + C=CC(=O)N1CCN(c2nc(=O)n(-c3c(C)ccnc3C(C)C)c3nc(-c4c(O)cccc4F)c(F)cc23)C(C)C1 .
active

Recorded test call requested for COC(=O)c1ccc2c(C(=Nc3ccc(N(C)C(=O)CN4CCN(C)CC4)cc3)c3ccccc3)c(O)[nH]c2c1 + C=CC(=O)N1CCN(c2nc(OCC3CCCN3C)nc3c2CCN(c2cccc4cccc(C)c24)C3)CC1CC#N
inactive
